Taken from PubChem BioAssay.

Assay: viability loss in pontine glioma line – cell-based, SU-DIPG-XIII, MIPE5.0, CellTiter-Glo, qHTS, dose response (AID 1347064);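 for AC50: cells exposed to compound for 48 hours before the viability read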
Conditions: CellTiter-Glo ATP luminescence
Records with an inconclusive call do not appear. The source made the active and inactive calls. No cut-off is given here; in the data, nearly all actives have AC50 up to about 23 µM.
Give one outcome, nothing more. List: true (active), false (inactive)

Challenge: Call for entry Cc1nn(C)c2c1C(c1ccc(C(F)(F)F)cc1)C(C#N)=C(N)O2 (centres undefined) :
Response given: false

Challenge: Call for entry CNC(=O)c1ccc(Nc2ncc(C(F)(F)F)c(NCc3nccnc3N(C)S(C)(=O)=O)n2)cc1 :
Response given: true

Challenge: Call for entry O=C(O)[C@@H](c1ccc(OCc2ccc3ccccc3n2)cc1)C1CCCC1 :
Response given: false

Challenge: Call for entry OCCOc1ccc(/C(=C(/CCCl)c2ccccc2)c2ccccc2)cc1 :
Response given: false

Challenge: Call for entry COc1cc2c(Oc3ccc4[nH]c(C)cc4c3F)ccnc2cc1OCC1(N)CC1 :
Response given: true

Challenge: Call for entry C[C@@]1(C(=O)Nc2ccc(F)nc2)CCCN1c1nc(Nc2cc(C3CC3)[nH]n2)c2cccn2n1 :
Response given: true

Challenge: Call for entry COc1cc2nc(-c3cc(F)ccc3O)nc(N[C@@H]3CNC[C@H]3C(C)(C)O)c2cc1OC :
Response given: true

Challenge: Call for entry C[C@H](O)[C@@H]1C(=O)N2C(C(=O)O)=C(S[C@@H]3CN[C@H](CNS(N)(=O)=O)C3)[C@@H](C)[C@@H]12 :
Response given: false

Challenge: Call for entry CCS(=O)(=O)Nc1ccc(Oc2ccc(F)cc2F)c(-c2cn(C)c(=O)c3[nH]ccc23)c1 :
Response given: true
